# systemUnderTest: N-terminally FLAG-tagged mouse Ang2 (HEK293T conditioned medium) (mouse) (UniProt O35608)
# Sequence (O35608 19-496 limits assumed): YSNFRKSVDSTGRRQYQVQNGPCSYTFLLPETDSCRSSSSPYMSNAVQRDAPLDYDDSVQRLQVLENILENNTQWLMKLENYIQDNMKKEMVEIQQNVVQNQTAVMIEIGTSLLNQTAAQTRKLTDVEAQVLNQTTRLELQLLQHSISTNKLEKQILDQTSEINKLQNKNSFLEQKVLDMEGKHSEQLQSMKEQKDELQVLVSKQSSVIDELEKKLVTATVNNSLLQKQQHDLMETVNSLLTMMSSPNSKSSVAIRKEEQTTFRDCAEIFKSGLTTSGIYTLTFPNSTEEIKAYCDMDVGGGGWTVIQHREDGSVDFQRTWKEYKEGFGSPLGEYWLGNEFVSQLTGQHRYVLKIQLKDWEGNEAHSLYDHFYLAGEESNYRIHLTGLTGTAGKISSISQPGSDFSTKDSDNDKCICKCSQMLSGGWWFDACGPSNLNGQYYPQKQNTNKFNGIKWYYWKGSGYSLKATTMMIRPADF
# testName: competition ELISA, periplasmic extract, FLAG-mAng2 on mTie2/Fc
Reported values of % inh for individual entries
Field: numeric (%). Do not append units.

Examples with answers:
binder	% inh / %
VHH 29B08 (VHH, not shown: small tags and cut ends) VHH: EVQLVESGGGVVQAGDSVRLSCAASGPTFRSYTMAWFRQTPGKERDIVAAISSSLGRTYYADSVKGRFQILRDNAKETVWLQMNSLKPEDTAVYICAASRSLNLAYTTKPYDYWGQGTQVTVSS	63
VHH 12A08 (VHH, not shown: small tags and cut ends) VHH: EVQLVESGRGLVQAGGSLRLSCAASGSIFSINAMLWYRQAPGKQRELVAAITSGGSTNYADSVKGRFTISRDNAKNTVYLQMNSLKPEDTAVYYCAADSDYSSDYYYWGQGTQVTVSS	2
VHH 25G04 (VHH, not shown: small tags and cut ends) VHH: EVQLVESGGGLVQPGGSLRLSCAASGFTFGSYDMSWVRQAPGKGPEWVSAINSRGGSTYYADSVKGRFTISRDNAKNTLYLQMNSLKPEDTAVYYCATDPYSLSYYGYPLYDYWGQGTQVTVSS	9
VHH 14A08 (VHH, not shown: small tags and cut ends) VHH: EVQLVESGGGLVQAGGSLRLSCASSGFTFDDYAIGWFRQAPGKEREGVSCISSSDGSTYYADSVKGRFTISSDNAKNTVYLQMNSLKPEDTAVYYCAARPPFHSCSEYENDYWGQGTQVTVSS	4

Okay, now this binder:
Query VHH 25D08 (VHH, not shown: small tags and cut ends) VHH: EVQLVESGGGLVQAGGSLRLSCAASGFTFDDYAIGWFRQAPGKDLEGVSCISSSDGSTYYADSVKGRFTISSDNAKNTVYLQMNSLKPEDTAVYYCAAVNGLGPFSVPVPVYDFWGQGTQVTVSS yields % inh of 6
